Entry source: paper PMC5018819

Molecular target: PfCK (Plasmodium falciparum)
Construct: made in house
Sequence (Q8IM71 1-440): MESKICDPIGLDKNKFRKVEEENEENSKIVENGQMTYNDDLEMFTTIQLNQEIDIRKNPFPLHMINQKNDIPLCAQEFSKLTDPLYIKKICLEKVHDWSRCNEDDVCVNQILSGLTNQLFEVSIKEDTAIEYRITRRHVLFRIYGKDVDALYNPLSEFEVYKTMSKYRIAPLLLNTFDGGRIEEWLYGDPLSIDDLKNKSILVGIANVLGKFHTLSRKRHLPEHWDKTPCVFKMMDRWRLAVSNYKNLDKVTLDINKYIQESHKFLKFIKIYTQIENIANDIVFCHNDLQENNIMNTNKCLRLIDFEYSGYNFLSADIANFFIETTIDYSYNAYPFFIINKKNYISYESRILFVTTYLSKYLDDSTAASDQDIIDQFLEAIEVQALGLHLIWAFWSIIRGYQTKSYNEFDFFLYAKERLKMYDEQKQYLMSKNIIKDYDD
Experiment: Ki determination and mode of inhibition
Format: biochemical
Conditions: competitive inhibition, approximate value; read-out: Ki, PfCK, with respect to Etn
Procedure: A continuous spectrophotometric 96-well plate assay was established for CK and EK activity based on an assay described. […] The reaction was initiated by addition of enzyme or substrate, as appropriate, and the rate of reaction was monitored by following the decrease in absorbance at 341 nm for 10 min at room temperature using a Thermo Multiska spectrophotometer. […]
pKi: −log10 of the molar value.
Readout Label: pKi

Record summary for CN(C)c1cc[n+](Cc2ccc(CCCCc3ccc(C[n+]4ccc(N5CCCC5)cc4)cc3)cc2)cc1.[Br-].[Br-] : reported pKi = ~5.40

Record summary for CN(C)c1cc[n+](Cc2ccc(-c3ccc(C[n+]4ccc(N5CCCC5)cc4)cc3)cc2)cc1.[Br-].[Br-] : reported pKi = ~5.40
